Ref: ChEMBL document CHEMBL1147125

Tested on: Pseudomonas aeruginosa
Protocol Text: Antibacterial activity against Pseudomonas aeruginosa at 100 ug/100 uL after 24 hrs
Assay type: functional
Parameter Measured: inhibition zone (IZ)

Parameter requested: inhibition zone (IZ). Apply to each item below.
1. C[C@@H]1C2=C(C[C@H](C(C)(C)O)C[C@H]1O)[C@@H](C)[C@@H](O)C2
2. C[C@H]1CC[C@@H](C(C)(C)O)C(=O)C2=C1CC[C@@H]2C
3. C[C@H]1CC[C@@H](C(C)(C)O)CC2=C1CC[C@@H]2C

1: 17 mm; 2: 13 mm; 3: 17 mm

Report inhibition zone (IZ) for each item below.
1. C[C@H]1CC[C@@H](C(C)(C)O)C[C@@H]2C1=CC(=O)[C@@H]2C
2. C[C@@H](O)[C@H]1C(=O)N2C(C(=O)O)=C(SCCNC=N)C[C@H]12 [IMIPENEM ANHYDROUS]

13 mm
24 mm

Provide reported inhibition zone (IZ) for each item, in the same order as listed.
1. C[C@@H]1C2=CC[C@H](C)[C@@H]2C[C@H](C(C)(C)O)C[C@@H]1O
2. C[C@@H]1[C@@H]2C[C@H](C(C)(C)O)CC[C@H](C)C2=C[C@@H]1O

20 mm
20 mm
